Counter-ions that a name gives are not always drawn.
measured_property: melting point (°C)
Answer with a number only, understood to be in °C.

Worked examples, 3 molecules total:
O=C(NCCCCN1CCN(c2ccccc2O)CC1)C1=Cc2ccccc2OC1 (as salt: HCl) [Example 58]
189
CC1(C)Sc2ccccc2C=C1C(=O)NCCCCN1CCN(c2cccc(C#N)c2)CC1 (as salt: HCl) [Example 44]
155
O=C(NCCCCN1CCN(c2ccc(F)cc2)CC1)C1=Cc2ccccc2OC1 (as salt: HCl) [Example 8]
243

For the next question, use this molecule.
Consider COc1ccc(Br)c2c1OCC(C(=O)NCCCCN1CCN(c3cccc(Cl)c3Cl)CC1)=C2 (as salt: HCl) [Example 51] . Its measured melting point is 205

---

Quick reference: melting point of the listed items.
Structures can show the parent of a compound that is named as a salt.
Express it in °C; write the number only.

Some solved cases for reference:
Cc1cccc(N2CCN(CCCCNC(=O)C3=Cc4ccccc4OC3)CC2)c1C (as salt: HCl)
202
O=C(NCCCCN1CCN(c2cccc(O)c2)CC1)C1=Cc2ccccc2OC1 (as salt: HCl)
199
COc1ccc2c(c1)C=C(C(=O)NCCCCN1CCN(c3cccc(Cl)c3Cl)CC1)CO2 (as salt: HCl)
205

Moving on to another compound below.
Value of melting point reported for the compound O=C(NCCCCN1CCN(c2cccc(CO)c2)CC1)C1=Cc2ccccc2OC1 (as salt: HCl) is 194
